System: herpes simplex virus type 1 (HSV-1) GHSV-UL46 strain
assay method text: HSV-1 cytopathic effect (CPE) assay
Format: cell-based
run parameters: read-out: HSV-1 cytopathic effect EC50; HSV-1 GHSV-UL46 in Vero E6 cells, 5 days culture, CCK8 readout
experimental readout: EC50 (nM)
Give bare numbers, in nM.

Prompt: Name the recorded EC50 for Cc1nc(N(C)C(=O)C2Cc3cc(F)c(-c4ccccn4)cc3C2)sc1S(N)(=O)=O (centres unmarked) [WX159] .
Response: 17

----------
assay method text: Pharmacokinetics of compounds in mice in vivo
run parameters: male, mouse, plasma; Balb/c mice, oral administration (gavage) 1.0 mg/kg; read-out: Concentration Integral AUC
experimental readout: AUC (µM·h)
Give bare numbers, in µM·h.

Prompt: Value lookup for AUC; key = Cc1nc(N(C)C(=O)C2Cc3ccc(-c4ccccn4)cc3C2)sc1S(N)(=O)=O (single isomer, unassigned) [WX037]
Response: 24.4
